- Method: Pharmacokinetics and tissue distribution of PsA in mice after IV bolus
- Type: in vivo, mouse
- Protocol conditions: male, NIH Swiss; mouse brain, 50 mg/kg IV
Reported metric: Cmax (ng/g)
Numbers only, in ng/g.

Task item: Consider the compound shown here: CC(C)=C[C@H]1C[C@H](C)[C@H]2CC[C@H](C)c3c(O[C@@H]4OC[C@@H](O)[C@H](O)[C@H]4O)c(O)c(C)c1c32 What is its recorded Cmax?
Reply: 10000

====

- Method: Pharmacokinetics and tissue distribution of PsA in mice after IV bolus
- Format: in vivo, mouse
- Protocol conditions: male, NIH Swiss; mouse plasma, 50 mg/kg IV bolus; estimate ± standard error
Reported metric: AUC (ng·h/mL)
Give bare numbers, in ng·h/mL.

Task item: Consider the molecule shown here: CC(C)=C[C@H]1C[C@H](C)[C@H]2CC[C@H](C)c3c(O[C@@H]4OC[C@@H](O)[C@H](O)[C@H]4O)c(O)c(C)c1c32 [PsA, pseudopterosin A] What is its recorded AUC?
Reply: 14400
